- Target Desc: recombinant pentameric gH complex (Towne strain) (human cytomegalovirus, Towne strain) (UniProt P17176)
- Sequence (P17176 30-715, one chain of several): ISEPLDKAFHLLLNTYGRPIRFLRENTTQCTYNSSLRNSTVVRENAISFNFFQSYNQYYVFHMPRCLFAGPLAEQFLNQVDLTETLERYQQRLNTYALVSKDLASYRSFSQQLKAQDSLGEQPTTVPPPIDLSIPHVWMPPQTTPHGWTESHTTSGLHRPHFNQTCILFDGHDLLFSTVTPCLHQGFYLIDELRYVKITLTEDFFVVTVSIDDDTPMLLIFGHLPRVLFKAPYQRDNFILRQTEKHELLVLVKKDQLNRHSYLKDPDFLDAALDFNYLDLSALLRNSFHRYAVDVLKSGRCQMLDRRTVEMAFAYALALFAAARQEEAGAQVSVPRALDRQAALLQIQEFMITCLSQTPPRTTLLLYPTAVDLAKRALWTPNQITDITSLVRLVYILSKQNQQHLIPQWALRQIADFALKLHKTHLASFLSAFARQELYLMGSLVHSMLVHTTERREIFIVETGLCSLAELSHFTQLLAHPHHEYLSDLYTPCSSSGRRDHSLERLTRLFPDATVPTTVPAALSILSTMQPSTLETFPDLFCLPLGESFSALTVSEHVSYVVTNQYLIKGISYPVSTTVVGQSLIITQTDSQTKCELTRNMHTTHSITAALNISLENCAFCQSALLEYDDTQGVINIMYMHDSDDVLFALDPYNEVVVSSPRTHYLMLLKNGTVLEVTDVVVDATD
- Assay Protocol: BLI competition on His-pentamer; competitor (antibody 2): 1-103
Decision: Pair-wise inhibition (%) >= 20% yields yes (1), all other cases yield no (0).

Would you say 1-103 (antibody, V domains shown) VH: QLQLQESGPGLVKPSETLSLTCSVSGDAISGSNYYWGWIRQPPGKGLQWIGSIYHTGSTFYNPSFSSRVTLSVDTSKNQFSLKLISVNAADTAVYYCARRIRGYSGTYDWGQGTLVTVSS VL: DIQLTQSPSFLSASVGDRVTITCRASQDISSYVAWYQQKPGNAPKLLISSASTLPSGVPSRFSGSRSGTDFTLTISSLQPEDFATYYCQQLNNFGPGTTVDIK shows Pair-wise inhibition (%) at minimum 20%?
yes (1)

Try the binder 2-25 (antibody, V domains shown) VH: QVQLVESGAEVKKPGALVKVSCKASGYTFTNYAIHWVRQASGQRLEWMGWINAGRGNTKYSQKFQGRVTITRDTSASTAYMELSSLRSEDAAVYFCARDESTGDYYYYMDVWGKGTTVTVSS VL: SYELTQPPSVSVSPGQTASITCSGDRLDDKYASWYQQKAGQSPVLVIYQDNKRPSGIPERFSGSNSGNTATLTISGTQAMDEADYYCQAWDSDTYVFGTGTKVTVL
no (0)

Try the binder 1-150 (antibody, V domains shown) VH: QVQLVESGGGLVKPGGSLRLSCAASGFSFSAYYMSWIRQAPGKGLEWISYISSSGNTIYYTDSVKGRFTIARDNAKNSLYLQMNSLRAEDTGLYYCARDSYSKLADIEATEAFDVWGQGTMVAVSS VL: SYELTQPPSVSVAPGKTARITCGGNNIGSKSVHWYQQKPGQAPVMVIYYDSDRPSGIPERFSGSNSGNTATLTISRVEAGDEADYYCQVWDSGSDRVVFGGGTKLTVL
yes (1)

Try the binder 2-18 (antibody, V domains shown) VH: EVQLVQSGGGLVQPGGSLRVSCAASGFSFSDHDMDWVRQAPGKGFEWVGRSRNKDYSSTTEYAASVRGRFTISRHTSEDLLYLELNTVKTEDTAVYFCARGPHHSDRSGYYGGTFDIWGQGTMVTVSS VL: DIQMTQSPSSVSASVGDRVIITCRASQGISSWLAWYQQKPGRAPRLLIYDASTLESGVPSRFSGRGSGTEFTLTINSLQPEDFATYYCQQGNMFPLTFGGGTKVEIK
no (0)

Try the binder 1-32 (antibody, V domains shown) VH: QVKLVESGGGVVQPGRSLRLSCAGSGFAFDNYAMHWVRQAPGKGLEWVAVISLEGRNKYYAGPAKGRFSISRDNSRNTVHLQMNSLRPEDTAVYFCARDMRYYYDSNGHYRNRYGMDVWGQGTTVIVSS VL: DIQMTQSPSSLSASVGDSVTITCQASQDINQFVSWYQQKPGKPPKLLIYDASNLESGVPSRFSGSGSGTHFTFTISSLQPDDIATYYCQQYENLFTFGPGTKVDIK
no (0)

All values here come from patent US11230591.
